# Human T-cell Binding 2 uM (MFI) values compiled below
target-system: T1, human CD8 alpha (CD8A) on primary human CD8+ T cells (human, UniProt P01732 22-235)
T1 construct: whole, on cells; also called hCD8A
T1 sequence (P01732 22-235): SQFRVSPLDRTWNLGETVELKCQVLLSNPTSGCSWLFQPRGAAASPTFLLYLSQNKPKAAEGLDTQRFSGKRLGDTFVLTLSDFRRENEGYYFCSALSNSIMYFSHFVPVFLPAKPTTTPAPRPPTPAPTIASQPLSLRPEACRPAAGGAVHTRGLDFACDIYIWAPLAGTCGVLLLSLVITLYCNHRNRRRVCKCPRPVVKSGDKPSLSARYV
method-summary: flow cytometry, human CD8+ T cells, 2 uM FN3

binder	Human T-cell Binding 2 uM (MFI)
P282ER9P1360_A9 (designed binder, FN3 domain) LPAPKNLVVSRVTEDSARLSWTAPDAAFDSFGILYYEPVDSGEAITLPIPGSERSYDLTGLKPGTEYWVVITGVKGGAPSTPLGAIFTT	23400
P283AR9P1362_B2 (designed binder, FN3 domain) LPAPKNLVVSRVTEDSARLSWAKHPNSFDSFLIQYQESEKVGEAIVLTVPGSERSYDLTGLKPGTEYTVSIYGVDVVVNELNNPLFSNPLSAIFTT	13600
